Data provenance is patent US20030068675.

Molecular target: T1, ZFP SBS#501 (synthetic)
T1 chain: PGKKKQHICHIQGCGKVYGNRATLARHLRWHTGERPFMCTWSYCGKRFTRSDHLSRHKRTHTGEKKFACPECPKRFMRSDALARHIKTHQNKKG
Assay: EMSA
Settings: tags: MBP fusion
property_name: Kd (nM)
Lab book: enter the figure in nM, no units written.

Lookup: // lookup Kd for GTGGGGGTT (dsDNA) DNA 1: GTGGGGGTT DNA 2: AACCCCCAC
Found: 8
